assay_system: UniProt A0A8M6YZ09
protocol_text: DAPI inhibition assay, Mate8
Assay type: cell-based
condition_parameters: read-out: IC50
experimental_endpoint: IC50 (µM)
Give the number; µM is assumed, so skip it.

# IC50 (molecule: "Cc1ncc(C[n+]2csc(CCO)c2C)c(N)n1" ) is 1900

====

assay_system: zebrafish Mate4 (Danio rerio, UniProt U3Q0C3)
Sequence (U3Q0C3 entry or part of it): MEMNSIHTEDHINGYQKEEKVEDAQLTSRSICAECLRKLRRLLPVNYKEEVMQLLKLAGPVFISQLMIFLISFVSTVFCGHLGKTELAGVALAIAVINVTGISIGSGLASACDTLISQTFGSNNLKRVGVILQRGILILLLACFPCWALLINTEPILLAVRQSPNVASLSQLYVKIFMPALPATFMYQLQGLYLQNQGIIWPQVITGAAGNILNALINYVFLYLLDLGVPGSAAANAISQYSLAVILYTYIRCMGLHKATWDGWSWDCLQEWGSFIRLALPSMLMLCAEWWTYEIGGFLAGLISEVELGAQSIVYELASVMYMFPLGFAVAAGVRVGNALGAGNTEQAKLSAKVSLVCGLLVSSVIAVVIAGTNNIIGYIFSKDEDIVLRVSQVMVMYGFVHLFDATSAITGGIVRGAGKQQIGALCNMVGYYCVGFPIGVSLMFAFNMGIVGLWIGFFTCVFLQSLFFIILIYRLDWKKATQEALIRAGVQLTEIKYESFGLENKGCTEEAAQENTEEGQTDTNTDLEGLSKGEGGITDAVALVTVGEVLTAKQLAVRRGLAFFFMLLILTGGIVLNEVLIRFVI
protocol_text: DAPI inhibition assay, Mate4
Type: cell-based
condition_parameters: read-out: IC50
experimental_endpoint: pIC50
Kindly note that pIC50 refers to -log10 of the concentration in mol/L and answer with the value alone.

Value of pIC50 reported for the compound Cc1ncc(C[n+]2csc(CCO)c2C)c(N)n1 [Thiamine, thiamine] is 3.09

====

assay_system: zebrafish Mate3 (Danio rerio, UniProt A1L1P9)
protocol_text: DAPI inhibition assay, Mate3
Type: cell-based
Design: expressed in transfected cells; host or cells: HEK293T
experimental_endpoint: IC50

Sample "C[C@]12CC[C@H]3[C@@H](CCC4=CC(=O)CC[C@@]43C)[C@@H]1CC[C@@H]2O" ; IC50 observed: 669 µM

====

Answer each item with its documented IC50.
assay_system: zebrafish Mate7 (Danio rerio, UniProt U3PTD6)
Sequence (U3PTD6 entry or part of it): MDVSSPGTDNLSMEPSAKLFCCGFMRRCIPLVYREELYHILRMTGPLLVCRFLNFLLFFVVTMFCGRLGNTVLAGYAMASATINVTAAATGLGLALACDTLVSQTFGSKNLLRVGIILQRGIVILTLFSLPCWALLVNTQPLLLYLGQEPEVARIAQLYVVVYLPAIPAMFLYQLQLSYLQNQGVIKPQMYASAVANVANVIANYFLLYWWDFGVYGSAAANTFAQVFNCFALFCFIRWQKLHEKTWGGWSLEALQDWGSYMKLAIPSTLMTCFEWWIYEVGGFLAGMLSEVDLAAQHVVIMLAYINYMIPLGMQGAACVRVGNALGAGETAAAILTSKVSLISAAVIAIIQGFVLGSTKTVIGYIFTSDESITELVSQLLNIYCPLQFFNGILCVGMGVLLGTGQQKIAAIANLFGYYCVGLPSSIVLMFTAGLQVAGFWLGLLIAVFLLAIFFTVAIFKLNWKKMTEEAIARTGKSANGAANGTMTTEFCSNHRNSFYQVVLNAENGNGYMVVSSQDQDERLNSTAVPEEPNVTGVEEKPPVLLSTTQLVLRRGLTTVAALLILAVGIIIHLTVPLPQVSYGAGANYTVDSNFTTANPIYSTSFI
protocol_text: DAPI inhibition assay, Mate7
Format: cell-based
Numbers only here, please. The scale is µM.

Reported IC50 ( CN/C(=N/CCSCc1nc[nH]c1C)NC#N [Cimetidine, cimetidine, reference compound] ) = 573

The compound "C[C@]12C[C@H](O)[C@H]3[C@@H](CCC4=CC(=O)CC[C@@]43C)[C@@H]1CC[C@@H]2C(=O)CO" showed IC50 equal to 99.6

// IC50 lookup, compound = "C[C@]12CC[C@H]3[C@@H](CCC4=CC(=O)CC[C@@]43C)[C@@H]1CC[C@@H]2O" , result: 42

Field IC50 (entry "C[C@]12CCC(=O)C=C1CC[C@@H]1[C@@H]2CC[C@]2(C)C(=O)CC[C@@H]12" ) reads 14.9

Memo: C[C@H](CCC(=O)O)[C@H]1CC[C@H]2[C@@H]3CC[C@@H]4C[C@H](O)CC[C@]4(C)[C@H]3C[C@H](O)[C@]12C [Deoxycholate, deoxycholate] , reported IC50: 203

====

assay_system: zebrafish Mate7 (Danio rerio)
protocol_text: DAPI inhibition assay, Mate7
Type: cell-based
condition_parameters: Mate7; co-incubation with modulator (50 μM–2 mM), Fig. 5
experimental_endpoint: interaction with DAPI uptake (in words)

molecule: CN1CC(=O)NC1=N
observed_value: did not interact

molecule: CN(C)C(=N)N=C(N)N [metformin, reference compound]
observed_value: did not interact

====

assay_system: UniProtKB U3Q0C3
protocol_text: DAPI inhibition assay, Mate4
Type: cell-based
experimental_endpoint: IC50 (µM)
Write the value in µM as a bare number.

Measured IC50, "C[C@]12C[C@H](O)[C@H]3[C@@H](CCC4=CC(=O)CC[C@@]43C)[C@@H]1CC[C@@H]2C(=O)CO" : 238

Per the records, this compound ( CN/C(=N/CCSCc1nc[nH]c1C)NC#N [Cimetidine, cimetidine, reference compound] ) has IC50 equal to 134

Entry "C[C@]12CC[C@H]3[C@@H](CCC4=CC(=O)CC[C@@]43C)[C@@H]1CC[C@@H]2O" — recorded IC50 = 651

Record C[n+]1ccc(-c2cc[n+](C)cc2)cc1 [Paraquat, paraquat, reference compound] . Reported IC50: 462

Input "C[C@]12CCC(=O)C=C1CC[C@@H]1[C@@H]2CC[C@]2(C)C(=O)CC[C@@H]12" . Output IC50: 114

====

assay_system: zebrafish Mate6 (Danio rerio, UniProt A1L2E7)
Sequence (A1L2E7 entry or part of it): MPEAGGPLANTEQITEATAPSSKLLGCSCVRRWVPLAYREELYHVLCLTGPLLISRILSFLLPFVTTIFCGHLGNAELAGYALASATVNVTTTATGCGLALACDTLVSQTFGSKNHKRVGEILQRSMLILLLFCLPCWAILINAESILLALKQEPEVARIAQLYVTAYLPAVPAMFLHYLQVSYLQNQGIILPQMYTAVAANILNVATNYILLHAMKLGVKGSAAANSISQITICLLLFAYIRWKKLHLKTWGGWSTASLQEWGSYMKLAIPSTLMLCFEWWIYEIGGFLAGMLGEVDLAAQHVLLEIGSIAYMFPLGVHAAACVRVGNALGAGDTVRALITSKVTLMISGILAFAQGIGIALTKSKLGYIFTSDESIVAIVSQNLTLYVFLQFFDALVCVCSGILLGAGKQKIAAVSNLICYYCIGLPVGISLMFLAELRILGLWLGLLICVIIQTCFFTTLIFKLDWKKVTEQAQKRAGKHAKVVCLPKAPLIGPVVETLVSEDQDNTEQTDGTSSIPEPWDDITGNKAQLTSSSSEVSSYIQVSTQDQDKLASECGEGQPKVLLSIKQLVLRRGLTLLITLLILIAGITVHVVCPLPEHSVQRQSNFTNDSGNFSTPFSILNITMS
protocol_text: DAPI inhibition assay, Mate6
Assay type: cell-based
condition_parameters: Mate6; inhibition of DAPI (1 μM) uptake; n = 3; NE = no effect in the compound solubility range; read-out: IC50
Counter-ions that a name gives are not always drawn.
What pIC50 was measured for each of the following?
The meaning of pIC50 here: minus log10 of the concentration in molar units.

Reported zebrafish Mate6 (Danio rerio, UniProt A1L2E7) pIC50 for item C[C@]12CC[C@H](OS(=O)(=O)O)CC1=CC[C@@H]1[C@@H]2CC[C@]2(C)C(=O)CC[C@@H]12 [DHEAS, dehydroepiandrosterone sulfate] was 4.41

Bench note, zebrafish Mate6 (Danio rerio, UniProt A1L2E7): C[n+]1ccc(-c2ccccc2)cc1 [MPP^+, 1-methyl-4-phenylpyridinium, reference compound] , pIC50 reads 4.55

====

assay_system: zebrafish Mate6 (Danio rerio)
protocol_text: DAPI inhibition assay, Mate6
Type: cell-based
pIC50: −log10 of the molar value.
So basically: pIC50 at 4 or higher? That is YES. Lower than 4? That is NO.

Query string: Kindly determine if pIC50 recorded for "C[C@]12CCC(=O)C=C1CC[C@@H]1[C@@H]2CC[C@]2(C)C(=O)CC[C@@H]12" is above or exactly 4.
Result string: YES

Query string: Does pIC50 meet or surpass 4 for CN/C(=N/CCSCc1nc[nH]c1C)NC#N [Cimetidine, cimetidine, reference compound] ?
Result string: NO

Query string: Kindly determine if pIC50 recorded for "C[C@]12CC[C@H]3[C@@H](CCC4=CC(=O)CC[C@@]43C)[C@@H]1CC[C@@H]2O" is above or exactly 4.
Result string: YES

Query string: Check if pIC50 >= 4 (inclusive). Item: C[n+]1ccc(-c2cc[n+](C)cc2)cc1 [Paraquat, paraquat, reference compound]
Result string: NO

====

assay_system: zebrafish Mate3 (Danio rerio, UniProt A1L1P9)
Sequence (A1L1P9 1-590): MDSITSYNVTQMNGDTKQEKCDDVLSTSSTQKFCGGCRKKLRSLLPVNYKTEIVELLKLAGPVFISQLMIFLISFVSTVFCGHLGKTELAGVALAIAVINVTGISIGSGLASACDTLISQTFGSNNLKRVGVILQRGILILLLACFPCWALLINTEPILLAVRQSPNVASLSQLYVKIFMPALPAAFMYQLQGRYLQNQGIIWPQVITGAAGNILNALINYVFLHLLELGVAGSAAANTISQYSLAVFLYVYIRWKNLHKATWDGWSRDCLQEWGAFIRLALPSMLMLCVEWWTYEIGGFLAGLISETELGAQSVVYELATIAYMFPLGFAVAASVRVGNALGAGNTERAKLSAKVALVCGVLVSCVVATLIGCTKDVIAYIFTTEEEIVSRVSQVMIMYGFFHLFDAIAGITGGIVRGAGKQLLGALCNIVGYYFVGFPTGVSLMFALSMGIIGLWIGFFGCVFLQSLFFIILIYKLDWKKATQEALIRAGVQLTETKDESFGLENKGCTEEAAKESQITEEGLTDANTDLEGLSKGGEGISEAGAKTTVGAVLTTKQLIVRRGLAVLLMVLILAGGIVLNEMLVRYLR
protocol_text: DAPI inhibition assay, Mate3
Type: cell-based
Set-up: expressed in transfected cells; host or cells: HEK293T
condition_parameters: Mate3; inhibition of DAPI (2.5 μM) uptake; n = 3; NE = no effect in the compound solubility range; read-out: IC50
experimental_endpoint: pIC50
// returns pIC50 (minus log10 of molar concentration), number only

Briefly, pIC50 measured for C[n+]1ccc(-c2ccccc2)cc1 [MPP^+, 1-methyl-4-phenylpyridinium, reference compound] : 2.61

====

assay_system: zebrafish Mate8 (Danio rerio)
Sequence (A0A8M6YZ09 entry or part of it): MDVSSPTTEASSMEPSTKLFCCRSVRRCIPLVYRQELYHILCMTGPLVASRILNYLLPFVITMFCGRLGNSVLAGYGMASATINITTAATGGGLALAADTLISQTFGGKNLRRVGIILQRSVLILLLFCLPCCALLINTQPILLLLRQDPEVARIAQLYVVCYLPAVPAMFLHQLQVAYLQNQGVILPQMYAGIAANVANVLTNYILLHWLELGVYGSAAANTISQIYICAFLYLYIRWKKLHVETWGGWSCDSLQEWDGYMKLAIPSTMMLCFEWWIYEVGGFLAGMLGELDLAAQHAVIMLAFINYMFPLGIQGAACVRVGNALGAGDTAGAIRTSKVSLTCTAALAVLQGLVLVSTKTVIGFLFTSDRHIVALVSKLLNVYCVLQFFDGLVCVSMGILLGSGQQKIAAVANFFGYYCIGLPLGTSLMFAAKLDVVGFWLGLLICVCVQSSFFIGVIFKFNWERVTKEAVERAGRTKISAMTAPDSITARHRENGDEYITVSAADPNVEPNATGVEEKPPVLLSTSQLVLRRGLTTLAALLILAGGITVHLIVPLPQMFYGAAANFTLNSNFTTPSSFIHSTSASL
protocol_text: DAPI inhibition assay, Mate8
Format: cell-based
condition_parameters: Mate8; co-incubation with modulator (50 μM–2 mM), Fig. 5
Description: HEK293T cells were transiently transfected as described previously[31] using the PEI (polyethyleneimine) reagent in 48-well plates. Cells were in parallel transfected with pcDNA3.1/His/LacZ plasmid and transfection efficiency was evaluated 24 h after transfection with the LacZ staining protocol. HEK293T cells overexpressing respective single zebrafish Mate transporter were used for further experiments. […] DAPI fluorescence was measured at 360 and 460 nm emission and excitation, respectively. […]
experimental_endpoint: interaction with DAPI uptake (in words)

compound: CN(C)C(=N)N=C(N)N [metformin, reference compound]
experimental_endpoint: interaction with DAPI uptake (in words)
observed_value: did not interact
//
compound: CN1CC(=O)NC1=N
experimental_endpoint: interaction with DAPI uptake (in words)
observed_value: did not interact

====

assay_system: zebrafish Mate6 (Danio rerio, UniProt A1L2E7)
protocol_text: DAPI inhibition assay, Mate6
Format: cell-based
condition_parameters: read-out: IC50
Protocol: HEK293T cells were transiently transfected as described previously[31] using the PEI (polyethyleneimine) reagent in 48-well plates. Cells were in parallel transfected with pcDNA3.1/His/LacZ plasmid and transfection efficiency was evaluated 24 h after transfection with the LacZ staining protocol. HEK293T cells overexpressing respective single zebrafish Mate transporter were used for further experiments. […] DAPI fluorescence was measured at 360 and 460 nm emission and excitation, respectively. […]
experimental_endpoint: IC50 (µM)
Write the answer as a number in µM, unit excluded.

The compound "Cc1ncc(C[n+]2csc(CCO)c2C)c(N)n1" , when measured on zebrafish Mate6 (Danio rerio, UniProt A1L2E7), yielded IC50 of 724
